List of DC50 values.
molecular target: SHP2 protein (Homo sapiens); assay: Degradation activity on SHP2 protein in NCI-H358 cells (Western blot, DC50); format: cell-based; design: endogenous in cells; conditions: read-out: Degradation activity for differenct cell lines NCI-H358 (DC50)

CC1(N)CCN(c2cnc(Sc3cccc(NC(=O)CCCCCCN4CC5(CCN(c6ncc(C(=O)NCc7ccc8c(c7)CN(C7CCC(=O)NC7=O)C8=O)cc6Cl)C5)C4)c3)cn2)CC1 (stereo not shown) : < 100 nM

[in] Value lookup for DC50; key = CC1(N)CCN(c2cnc(Sc3cccc(NC(=O)c4ccc(N5CCC(N6CC=C(c7ncc(C(=O)NCc8ccc9c(c8)CN(C8CCC(=O)NC8=O)C9=O)cn7)CC6)CC5)cc4)c3)cn2)CC1 (stereo not shown)
[out] < 100 nM

[in] Fill in: DC50 of CC1(N)CCN(c2cnc(Sc3cccc(NC(=O)c4ccc(N5CCC(N6CC=C(c7ccc(C(=O)NCc8ccc9c(c8)CN(C8CCC(=O)NC8=O)C9=O)cc7)CC6)CC5)c(F)c4)c3)cn2)CC1 (stereo not shown) is ___
[out] < 100 nM

[in] // query DC50 value for entry Cc1ncsc1-c1ccc([C@H](C)NC(=O)[C@@H]2C[C@@H](O)CN2C(=O)[C@@H](NC(=O)c2cnc(N3CCC(OCCCCCCCC(=O)Nc4cccc(Sc5cnc(N6CCC(C)(N)CC6)cn5)c4)CC3)nc2)C(C)(C)C)cc1
[out] < 100 nM

[in] Entry Cc1ncsc1-c1ccc([C@H](C)NC(=O)[C@@H]2C[C@@H](O)CN2C(=O)[C@@H](NC(=O)c2cnc(N3CCN(CC(=O)Nc4cccc(Sc5cnc(N6CCC(C)(N)CC6)cn5)c4)CC3)nc2)C(C)(C)C)cc1 has what DC50?
[out] > 1000 nM

[in] Please give the measured DC50 for this compound: CC1(N)CCN(c2cnc(Sc3cccc(NC(=O)CCCCCCN4CC5(CC=C(c6ccc(C(=O)NCc7ccc8c(c7)CN(C7CCC(=O)NC7=O)C8=O)nn6)CC5)C4)c3)cn2)CC1 (stereo not shown)
[out] < 100 nM

[in] Recorded DC50 for CC1(N)CCN(c2cnc(Sc3cccc(NC(=O)c4ccc(N5CCC(N6CC=C(c7ccc(C(=O)NCc8ccc9c(c8)CN(C8CCC(=O)NC8=O)C9=O)nc7Cl)CC6)CC5)c(F)c4)c3)cn2)CC1 (stereo not shown) , please?
[out] 100 to 1000 nM

[in] Give its DC50 value. Item: CC1(N)CCN(c2cnc(Sc3cccc(NC(=O)c4ccc(N5CCC(N6CCN(c7ccc(C(=O)NCc8ccc9c(c8)CN(C8CCC(=O)NC8=O)C9=O)nn7)CC6)CC5)c(F)c4)c3)cn2)CC1 (stereo not shown)
[out] < 100 nM

====

Each record here notes measured DC50.
target: UniProtKB Q06124; assay: Degradation activity on SHP2 protein in MIA Paca-2 cells (Western blot, DC50); format: cell-based; design: endogenous in cells; host or cells: MIA Paca-2 cells; conditions: read-out: Degradation activity for differenct cell lines MIA Paca-2 (DC50)

CC1(N)CCN(c2cnc(Sc3cccc(NC(=O)c4ccc(N5CCC(N6CC=C(c7ncc(C(=O)NCc8ccc9c(c8)CN(C8CCC(=O)NC8=O)C9=O)cc7C(F)(F)F)CC6)CC5)cc4)c3)cn2)CC1 (centres unmarked) : < 100 nM
CC1(N)CCN(c2cnc(Sc3cccc(NC(=O)C4CCC(N5CCN(c6ccc7c(c6)CN(C6CCC(=O)NC6=O)C7=O)CC5)CC4)c3)cn2)CC1 (centres unmarked) : > 1000 nM
CC1(N)CCN(c2cnc(Sc3cccc(NC(=O)CCCCCCCCN4CCN(c5ccc(C(=O)NCc6ccc7c(c6)CN(C6CCC(=O)NC6=O)C7=O)cc5)CC4)c3)cn2)CC1 (centres unmarked) : < 100 nM
CC1(N)CCN(c2cnc(Sc3cccc(NC(=O)c4ccc(N5CCC(N6CC=C(c7ccc(C(=O)NCc8ccc9c(c8)CN(C8CCC(=O)NC8=O)C9=O)cc7)CC6)CC5)cc4)c3)cn2)CC1 (centres unmarked) : < 100 nM

[in] Give its DC50 value. Item: C[C@@H]1OCC2(CCN(c3cnc(Sc4cccc(NC(=O)c5ccc(N6CCC(N7CCC(c8ccc(C(=O)NCc9ccc%10c(c9)CN(C9CCC(=O)NC9=O)C%10=O)cc8)C(F)C7)CC6)c(F)c5)c4)cn3)CC2)[C@@H]1N (some centres unmarked)
[out] < 100 nM

====

Target: SHP2 protein (Homo sapiens, UniProt Q06124)
Test: Degradation activity on SHP2 protein in MV-411 cells (Western blot, DC50)
Type: cell-based
Set-up: endogenous in cells
Settings: MV411 cells, 24 hours, read-out: Degradation activity for differenct cell lines MV411 (DC50)
Method: […] (3) After 24 hours of cultivation, the cells were lysed using RIPA cell lysate, and the proteins were extracted. The protein concentration was measured using a BCA assay kit. […] (6) The images were analyzed with Image J grayscale, and the degradation ratio of protein bands in the test group was calculated, based on the negative control group (DMSO) (100%). […]
molecules and their reported DC50

[in] Kindly state the measured DC50 obtained for NC1(CO)CCN(c2cnc(Sc3cccc(NC(=O)CCCCCCN4CC5(CCN(c6ccc(C(=O)NCc7ccc8c(c7)CN(C7CCC(=O)NC7=O)C8=O)nc6)C5)C4)c3)cn2)CC1 (stereo not drawn) with SHP2 protein (Homo sapiens, UniProt Q06124).
[out] 100 to 1000 nM

[in] What DC50 appears in the records for this molecule with SHP2 protein (Homo sapiens, UniProt Q06124)? CC1(N)CCN(c2cnc(Sc3cccc(NC(=O)CCCCCCCOC4CCN(c5ncc(C(=O)NCc6ccc7c(c6)CN(C6CCC(=O)NC6=O)C7=O)cn5)CC4)c3)cn2)CC1 (stereo not drawn)
[out] < 100 nM

[in] What measured DC50 is associated with CC1(N)CCN(c2cnc(Sc3cccc(NC(=O)COCCOCCOCCOCC(=O)Nc4ccc5c(c4)CN(C4CCC(=O)NC4=O)C5=O)c3)cn2)CC1 (stereo not drawn) on SHP2 protein (Homo sapiens, UniProt Q06124)?
[out] > 1000 nM

[in] So what DC50 did Cc1ncsc1-c1ccc([C@H](C)NC(=O)[C@@H]2C[C@@H](O)CN2C(=O)[C@@H](NC(=O)[C@@H]2C[C@H]2C(=O)N2CCC3(CN(C(=O)CCCCCC(=O)Nc4cccc(Sc5cnc(N6CCC(C)(N)CC6)cn5)c4)C3)C2)C(C)(C)C)cc1 get with SHP2 protein (Homo sapiens, UniProt Q06124)?
[out] < 100 nM

[in] DC50 of NC1(CO)CCN(c2cnc(Sc3cccc(NC(=O)CCCCCCCCN4CC=C(c5ccc(C(=O)NCc6ccc7c(c6)CN(C6CCC(=O)NC6=O)C7=O)nn5)CC4)c3)cn2)CC1 (stereo not drawn) on SHP2 protein (Homo sapiens, UniProt Q06124)?
[out] < 100 nM

[in] Item Cc1ncsc1-c1ccc([C@H](C)NC(=O)[C@@H]2C[C@@H](O)CN2C(=O)[C@@H](NC(=O)c2ccc(N3CCN(CCCCCCCCC(=O)Nc4cccc(Sc5cnc(N6CCC(C)(N)CC6)cn5)c4)CC3)nn2)C(C)(C)C)cc1 with SHP2 protein (Homo sapiens, UniProt Q06124) - DC50?
[out] 100 to 1000 nM

====

Target: SHP2 protein (Homo sapiens, UniProt Q06124)
Sequence (Q06124 1-593): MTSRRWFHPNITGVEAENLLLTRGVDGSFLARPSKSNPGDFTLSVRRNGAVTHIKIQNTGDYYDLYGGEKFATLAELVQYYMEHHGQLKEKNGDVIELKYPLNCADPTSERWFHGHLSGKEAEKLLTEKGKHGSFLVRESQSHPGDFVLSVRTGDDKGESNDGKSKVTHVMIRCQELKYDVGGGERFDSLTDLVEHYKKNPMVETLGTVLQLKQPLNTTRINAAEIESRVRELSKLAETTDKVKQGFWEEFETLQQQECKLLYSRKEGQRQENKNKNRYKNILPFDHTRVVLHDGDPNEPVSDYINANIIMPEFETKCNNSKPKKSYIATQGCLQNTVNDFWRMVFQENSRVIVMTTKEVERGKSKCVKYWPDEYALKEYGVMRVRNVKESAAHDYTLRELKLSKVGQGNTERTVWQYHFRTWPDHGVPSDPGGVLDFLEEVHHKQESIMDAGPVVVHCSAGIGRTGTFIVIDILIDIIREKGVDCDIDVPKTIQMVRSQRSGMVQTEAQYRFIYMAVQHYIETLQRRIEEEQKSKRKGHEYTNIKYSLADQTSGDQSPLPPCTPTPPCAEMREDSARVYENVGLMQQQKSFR
Experiment: Degradation activity on SHP2 protein in MIA Paca-2 cells (Western blot, DC50)
Type: cell-based
Parameters: endogenous in cells; host or cells: MIA Paca-2 cells
Conditions: read-out: Degradation activity for differenct cell lines MIA Paca-2 (DC50)
PROPERTY_MEASURED: DC50

// solved cases for DC50 follow
Cc1cc(C(=O)Nc2cccc(Sc3cnc(N4CCC(C)(N)CC4)cn3)c2)ccc1N1CCC(N2CC=C(c3cnc(C(=O)NCc4ccc5c(c4)CN(C4CCC(=O)NC4=O)C5=O)c(F)c3)CC2)CC1 (stereo not drawn) : < 0.1 µM
CC1(N)CCN(c2cnc(Sc3cccc(NC(=O)c4ccc(N5CCC(C(=O)N6CCN(c7ccc8c(c7)CN(C7CCC(=O)NC7=O)C8=O)CC6)CC5)c(F)c4)c3)cn2)CC1 (stereo not drawn) : > 1 µM

Alright, here's another compound for you.
[in] Which measured DC50 belongs to CC1(N)CCN(c2cnc(Sc3cccc(NC(=O)[C@H]4C[C@@H]4c4ccc(N5CCN(c6ccc(C(=O)N7CCN(c8ccc9c(c8)CN(C8CCC(=O)NC8=O)C9=O)CC7)nn6)CC5)c(F)c4)c3)cn2)CC1 (stereo partly drawn) , tested on SHP2 protein (Homo sapiens, UniProt Q06124)?
[out] > 1 µM
